- test-target: human TRPM8 (Homo sapiens, UniProt Q7Z2W7)
- Sequence (Q7Z2W7 whole entry): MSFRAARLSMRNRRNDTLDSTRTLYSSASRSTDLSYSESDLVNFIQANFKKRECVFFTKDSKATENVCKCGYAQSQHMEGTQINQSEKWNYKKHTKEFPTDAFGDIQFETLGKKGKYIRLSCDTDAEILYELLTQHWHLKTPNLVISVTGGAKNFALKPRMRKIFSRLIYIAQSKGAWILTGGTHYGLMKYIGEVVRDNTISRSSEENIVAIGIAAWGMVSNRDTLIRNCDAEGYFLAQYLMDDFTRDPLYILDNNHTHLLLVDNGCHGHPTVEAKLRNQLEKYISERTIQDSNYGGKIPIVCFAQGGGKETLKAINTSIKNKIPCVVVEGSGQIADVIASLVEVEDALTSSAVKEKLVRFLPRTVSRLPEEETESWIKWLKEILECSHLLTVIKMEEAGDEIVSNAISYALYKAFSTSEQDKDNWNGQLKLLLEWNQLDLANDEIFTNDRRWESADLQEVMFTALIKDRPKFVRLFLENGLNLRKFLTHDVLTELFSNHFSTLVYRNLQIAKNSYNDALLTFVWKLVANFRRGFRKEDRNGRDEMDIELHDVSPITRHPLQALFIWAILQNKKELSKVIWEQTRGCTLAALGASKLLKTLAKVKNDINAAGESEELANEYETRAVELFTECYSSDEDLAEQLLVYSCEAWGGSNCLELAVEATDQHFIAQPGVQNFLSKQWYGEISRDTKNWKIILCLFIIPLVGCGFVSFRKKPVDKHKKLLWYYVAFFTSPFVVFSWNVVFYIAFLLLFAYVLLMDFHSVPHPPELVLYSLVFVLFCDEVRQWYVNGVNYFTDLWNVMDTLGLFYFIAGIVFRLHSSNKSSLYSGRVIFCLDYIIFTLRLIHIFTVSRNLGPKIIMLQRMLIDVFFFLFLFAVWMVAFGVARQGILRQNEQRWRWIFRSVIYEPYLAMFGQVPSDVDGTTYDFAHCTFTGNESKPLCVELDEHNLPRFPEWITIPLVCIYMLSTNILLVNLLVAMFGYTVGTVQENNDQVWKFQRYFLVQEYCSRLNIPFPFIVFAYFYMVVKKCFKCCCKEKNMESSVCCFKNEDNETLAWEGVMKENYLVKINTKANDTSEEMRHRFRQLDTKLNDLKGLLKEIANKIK
- method: Luminescence readout assay for measuring intracellular calcium (aequorin), hTRPM8 antagonism
- study-conditions: CHO cell line expressing human TRPM8 and aequorin; activation by icilin, L-menthol or cold buffer (table does not say which)
pIC50: −log10 of the molar value.
metric-name: pIC50

molecule	pIC50
O=C(Nc1cccnc1)N[C@H](c1cccc(C(F)(F)F)c1)c1ccc(C(F)(F)F)c(F)c1 [Example 117, acetate]	5.76

P = O=C(NC1CCCc2ccccc21)N[C@@H](c1ccc(C(F)(F)F)cc1)c1ncccc1C(F)(F)F (stereo partly drawn) [Example 185, acetate]
Q = O=C(NCc1ccccc1Cl)N[C@@H](c1ccc(C(F)(F)F)cc1)c1ncccc1C(F)(F)F [Example 73, acetate]
R = CC#Cc1cccnc1[C@@H](NC(=O)NC(C)(C)C)c1ccc(C(F)(F)F)cc1 [Example 42]
Output the entries ranked by pIC50 from maximum down to minimum. Your answer should be the labels, listed in the requested order.
R, Q, P

I = O=C(NC1CCN(C(=O)OCc2ccccc2)CC1)N[C@@H](c1ccc(C(F)(F)F)cc1)c1ncccc1C(F)(F)F [Example 75, acetate]
II = CC(C)(C)NC(=S)N[C@@H](c1ccc(C(F)(F)F)cc1)c1ncccc1C(F)(F)F [Example 123]
Between I and II , which one has the lower reported pIC50 value? Pick one and reply with its label.
I
(I: 6.17, II: 6.72)

1 = O=C(NCc1cccc(F)c1)N[C@@H](c1ccc(C(F)(F)F)cc1)c1ncccc1C(F)(F)F [Example 72, acetate]
2 = O=C(Nc1cc[nH]c(=O)c1)N[C@@H](c1ccc(C(F)(F)F)cc1)c1ncccc1F [Example 164]
3 = O=C(Nc1cccnc1)N[C@@H](c1ccc(C(F)(F)F)c(F)c1)c1ccccc1C(F)(F)F [Example 121]
4 = CCOC(=O)c1cccc(NC(=O)N[C@@H](c2ccc(C(F)(F)F)cc2)c2ncccc2C(F)(F)F)c1 [Example 90, acetate]
Output the entries ranked by pIC50 from maximum down to minimum. Your answer should be the labels, listed in the requested order.
3, 1, 4, 2
(3: 7.08, 1: 6.79, 4: 6.19, 2: 5.54)

A = O=C(Nc1ccc2occc2c1)N[C@@H](c1ccc(C(F)(F)F)cc1)c1ncccc1C(F)(F)F [Example 39, acetate]
B = O=C(Nc1ccccc1Cl)N[C@@H](c1ccc(C(F)(F)F)cc1)c1ncccc1C(F)(F)F [Example 181, acetate]
C = O=C(N[C@@H](c1ccc(C(F)(F)F)c(F)c1)c1ncccc1C(F)(F)F)N1CCOCC1 [Example 167, 2,2,2-trifluoroacetate]
D = O=C(Nc1cccnc1)NC(c1cc(F)cc(Cl)c1)c1ncccc1F (stereo not drawn) [Example 24, acetate]
E = C[C@@H](NC(=O)N[C@@H](c1ccc(C(F)(F)F)c(F)c1)c1ncccc1C(F)(F)F)C(F)(F)F [Example 152, acetate]
Sort (5 molecules) by pIC50: min first. Your answer should be the labels, listed in the requested order.
A, D, C, B, E
(A: 5.39, D: 6.17, C: 6.48, B: 6.85, E: 7.15)

----------
- test-target: UniProtKB Q7Z2W7
- method: Luminescence readout assay for measuring intracellular calcium (aequorin), hTRPM8 antagonism
- study-conditions: CHO cell line expressing human TRPM8 and aequorin; activation by icilin, L-menthol or cold buffer (table does not say which)
metric-name: IC50 (nM)

I = O=C(NC(=O)c1ccccc1)N[C@@H](c1ccc(C(F)(F)F)cc1)c1ncccc1C(F)(F)F
II = CC(C)(C)OC(=O)N[C@@H](c1ccc(C(F)(F)F)cc1)c1ccccn1 [Example 169, 2,2,2-trifluoroacetate]
Could you please tell me which of these two has the higher IC50: I or II ? Pick one and reply with its label.
II

I = COC(=O)[C@@H](NC(=O)N[C@@H](c1ccc(C(F)(F)F)cc1)c1ncccc1C(F)(F)F)C(C)C
II = CCOC(=O)c1ccc(NC(=O)N[C@@H](c2ccc(C(F)(F)F)cc2)c2ncccc2C(F)(F)F)cc1 [Example 187, acetate]
III = O=C(Nc1cccnc1)N[C@@H](c1ccc2ccccc2c1)c1ncccc1C(F)(F)F
IV = O=C(Nc1cccnc1)NC(c1ccc(C(F)(F)F)cc1)c1ccncc1Br (stereo not drawn) [Example 120, acetate]
V = FC(F)(F)c1ccc([C@H](NC(=S)Nc2cccnc2)c2ncccc2C(F)(F)F)cc1
Output the entries ranked by IC50 from maximum down to minimum. Your answer should be the labels, listed in the requested order.
IV, II, I, V, III
(IV: 2850 nM, II: 1550 nM, I: 884 nM, V: 221 nM, III: 101 nM)

----------
- test-target: UniProtKB Q7Z2W7
- method: Luminescence readout assay for measuring intracellular calcium (aequorin), hTRPM8 antagonism
- study-conditions: CHO cell line expressing human TRPM8 and aequorin; activation by icilin, L-menthol or cold buffer (table does not say which)
pIC50: −log10 of the molar value.
metric-name: pIC50

As a guide, the following entries are already answered.
compound	measurement
O=C(Nc1ccc(=O)[nH]c1)N[C@@H](c1ccc(C(F)(F)F)cc1)c1ncccc1F	5.49
Cc1cc(C)c(NC(=O)N[C@@H](c2ccc(C(F)(F)F)cc2)c2ncccc2C(F)(F)F)c(C)c1 [Example 186, acetate]	5.95
O=C(NCc1ccc(Cl)cc1)N[C@@H](c1ccc(C(F)(F)F)cc1)c1ncccc1C(F)(F)F [Example 134, acetate]	5.97

1 = O=C1Cc2cc(NC(=O)N[C@@H](c3ccc(C(F)(F)F)cc3)c3ncccc3F)ccc2N1
2 = O=C(Nc1cccnc1)NC(c1cc(F)cc(Cl)c1)c1ncccc1C(F)(F)F (stereo not shown) [Example 23, acetate]
Could you please tell me which of these two has the higher pIC50: 1 or 2 ? Pick one and reply with its label.
1

A = Cc1noc(C)c1NC(=O)N[C@@H](c1ccc(C(F)(F)F)cc1)c1ncccc1C(F)(F)F
B = COC(=O)c1cccc(NC(=O)N[C@@H](c2ccc(C(F)(F)F)cc2)c2ncccc2C(F)(F)F)c1C [Example 182, acetate]
Between A and B , which one has the lower reported pIC50 value? Pick one and reply with its label.
B
(B: 6.37, A: 7.30)

----------
- test-target: human TRPM8 (Homo sapiens)
- method: Luminescence readout assay for measuring intracellular calcium (aequorin), hTRPM8 antagonism
- study-conditions: CHO cell line expressing human TRPM8 and aequorin; activation by icilin, L-menthol or cold buffer (table does not say which)
metric-name: IC50 (µM)

compound	IC50 [µM]
O=C(Nc1cccnc1)N[C@@H](c1ccc(OC(F)(F)F)c(F)c1)c1ncccc1F	0.007

1 = CCOc1ccccc1CNC(=O)N[C@@H](c1ccc(C(F)(F)F)cc1)c1ncccc1C(F)(F)F [Example 133, acetate]
2 = O=C(Nc1c(F)cccc1F)N[C@@H](c1ccc(C(F)(F)F)cc1)c1ncccc1C(F)(F)F
3 = O=C(Nc1cccnc1)N[C@@H](c1ccc(OC(F)(F)F)cc1)c1ncccc1F
Output the entries ranked by IC50 from maximum down to minimum. Your answer should be the labels, listed in the requested order.
1, 2, 3
(1: 1.59 µM, 2: 0.209 µM, 3: 0.015 µM)

----------
- test-target: human TRPM8 (Homo sapiens, UniProt Q7Z2W7)
- method: Luminescence readout assay for measuring intracellular calcium (aequorin), hTRPM8 antagonism
- study-conditions: CHO cell line expressing human TRPM8 and aequorin; activation by icilin, L-menthol or cold buffer (table does not say which)
metric-name: IC50 (µM)

molecule	unit-spec	IC50
O=C(Nc1cccnc1)N[C@@H](c1ccc(F)cc1)c1ncccc1C(F)(F)F	µM	0.382

a = CC[C@H](C)C(NC(=O)N[C@@H](c1ccc(C(F)(F)F)cc1)c1ncccc1C(F)(F)F)C(=O)OC (stereo partly drawn) [Example 99, acetate]
b = O=C(Nc1cccnc1)N[C@@H](c1cccc(C(F)(F)F)c1)c1ncccc1C(F)(F)F
c = O=C(Nc1cccnc1)N[C@@H](c1cnc2ccccc2c1)c1ncccc1C(F)(F)F
d = O=C(Nc1ccc(C(=O)O)cc1)N[C@@H](c1ccc(OC(F)(F)F)c(F)c1)c1ncccc1F
Output the entries ranked by IC50 from maximum down to minimum. Your answer should be the labels, listed in the requested order.
d, a, c, b
(d: 3.24 µM, a: 0.712 µM, c: 0.259 µM, b: 0.175 µM)

I = COc1cccc(CCNC(=O)N[C@@H](c2ccc(C(F)(F)F)cc2)c2ncccc2C(F)(F)F)c1OC [Example 82, acetate]
II = O=C(Nc1cccnc1)N[C@@H](c1ccc(C(F)(F)F)cc1)c1ncccc1Br
III = O=C(NCC1CCS(=O)(=O)C1)N[C@@H](c1ccc(C(F)(F)F)cc1)c1ncccc1C(F)(F)F (stereo partly drawn) [Example 64, acetate]
Output the entries ranked by IC50 from maximum down to minimum. Your answer should be the labels, listed in the requested order.
III, I, II
(III: 5.65 µM, I: 0.559 µM, II: 0.067 µM)

P = C[C@@H](NC(=O)N[C@@H](c1ccc(C(F)(F)F)cc1)c1ncccc1C(F)(F)F)c1ccccc1 [Example 70, acetate]
Q = O=C(NCCc1ccc2c(c1)OCO2)N[C@@H](c1ccc(C(F)(F)F)cc1)c1ncccc1C(F)(F)F [Example 36, acetate]
Could you please tell me which of these two has the higher IC50: P or Q ? Pick one and reply with its label.
P
(P: 0.781 µM, Q: 0.39 µM)

P = O=C(NCc1ccc(Br)cc1)N[C@@H](c1ccc(C(F)(F)F)cc1)c1ncccc1C(F)(F)F [Example 125, acetate]
Q = C=CCc1cccnc1[C@@H](NC(=O)Nc1cccnc1)c1ccc(C(F)(F)F)cc1
R = CCOC(=O)N[C@@H](c1ccc(C(F)(F)F)cc1)c1ncccc1C(F)(F)F
Sort (3 molecules) by IC50: min first. Your answer should be the labels, listed in the requested order.
Q, R, P
(Q: 0.022 µM, R: 0.147 µM, P: 0.561 µM)

1 = C=CCc1cccnc1[C@@H](NC(=O)N[C@@H](C)C(F)(F)F)c1ccc(C(F)(F)F)cc1
2 = Cc1cccc(CNC(=O)N[C@@H](c2ccc(C(F)(F)F)cc2)c2ncccc2C(F)(F)F)c1 [Example 147, acetate]
Between 1 and 2 , which one has the lower reported IC50 value? Pick one and reply with its label.
1
(1: 0.028 µM, 2: 3.83 µM)

Numbers sourced from patent US8778941B2.
